- target: T1, anthrax protective antigen, wild type PA83 (Bacillus anthracis, UniProt P13423 30-764)
- T1 construct: mature
- T1 sequence (P13423 30-764): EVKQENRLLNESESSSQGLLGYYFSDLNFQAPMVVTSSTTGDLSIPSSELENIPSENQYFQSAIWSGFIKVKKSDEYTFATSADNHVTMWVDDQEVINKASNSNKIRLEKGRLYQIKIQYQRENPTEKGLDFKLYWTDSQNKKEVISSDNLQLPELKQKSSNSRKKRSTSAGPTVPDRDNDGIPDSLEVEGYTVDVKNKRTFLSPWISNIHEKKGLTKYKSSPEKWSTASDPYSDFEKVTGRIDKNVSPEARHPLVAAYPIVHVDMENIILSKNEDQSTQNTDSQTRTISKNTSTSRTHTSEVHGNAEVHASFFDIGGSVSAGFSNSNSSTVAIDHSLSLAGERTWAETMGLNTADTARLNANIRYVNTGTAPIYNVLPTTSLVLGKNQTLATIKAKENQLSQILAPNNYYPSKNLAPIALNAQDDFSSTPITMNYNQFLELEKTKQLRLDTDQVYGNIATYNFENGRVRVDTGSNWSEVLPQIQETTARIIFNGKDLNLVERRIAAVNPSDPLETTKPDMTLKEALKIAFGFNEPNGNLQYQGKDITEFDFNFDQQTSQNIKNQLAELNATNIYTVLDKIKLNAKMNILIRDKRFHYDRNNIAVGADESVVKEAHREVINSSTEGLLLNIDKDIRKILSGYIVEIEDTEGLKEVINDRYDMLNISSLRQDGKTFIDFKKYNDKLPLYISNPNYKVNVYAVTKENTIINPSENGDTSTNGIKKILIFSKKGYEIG
- assay.summary: dilution ELISA on PA-coated plates
Mark each entry MET if its EC50 sits below 300 pM, and NOT MET for all others.

binder: JIK-B10 (VHH) VHH: QVQLVETGGGLVQPGGSLRLSCAASGFTFSSYRMSWYRQAAGKERDVVATITANGVPTGYADSVMGRFTISRDNAKNTVYLEMNSLNPEDTAVYYCNAPRLHTSVGYWGQGTQVTVSS
discrete.label: MET
--
binder: JIJ-A12 (VHH) VHH: QVQLVESGGGLVQPGGSLRLSCAASGIIFSIYTMGWYRQAPGKQRELVAAIPSGPSANATDSVGGRFTITRDNAENTVYLQMNDLKPEDTAVYYCNARRGPGIKNYWGQGTQVTVSS
discrete.label: NOT MET
--
binder: JKH-A4 (VHH) VHH: QVQLAETGGGLVQAGGSLRLSCSASGLTFGNYAMGWFRQAPGKEREFVASISRSGSNTWYAEPLKGRFAISRDNDKNALYLQMNSLKPEDTAVYYCAGGSYNSDWWNYMYWGQGTQVTVSS
discrete.label: NOT MET
--
binder: JIJ-B8 (VHH) VHH: SGGGLVQPGGSLSVSCAASGSIARPGAMAWYRQAPGKERELVASITPGGLTNYADSVTGRFTISRDNAKRTVYLQMNSLQPEDTAVYYCHARIIPLGLGSEYRDHWGQGTQVTVSS
discrete.label: NOT MET
--
binder: JKO-H2 (VHH, also called JKO-H12) VHH: QVQLAESGGGLVQAGGSLRLSCAASGRTFSSYVMGWFRQAPGKEREFVAAISRNGGKTYYADSVKGRFTISRDGTENTVYLQMNSLKPEDTAVYYCAAAVAASAEFVTARSNFYEYWGQGTQVTVSS
discrete.label: NOT MET
--
binder: JKO-E12 (VHH) VHH: QVQLAETGGGLVQAGGSLRLSCLASRMSFSRRPMAWYRQAPGKQRERVATISSFGDTTNYTDSVEGRFTISRDNAKNTMYLQMNSLKPDDTAVYYCNTLLATYAWGQGTQVTVSS
discrete.label: MET
